Overview of recorded MIC for various molecules
Tested on: Pseudomonas aeruginosa
Assay: Antibacterial activity against Pseudomonas aeruginosa 14-16 after 18 to 24 hrs by two-fold serial dilution method
Type: functional
Output spec: scalar in µg/mL, unitless text.

MOLECULE	MIC, µg/mL
CCO/N=C1/CN(c2nc3c(cc2F)c(=O)c(C(=O)O)cn3-c2nc(N)c(F)cc2F)CC1CNC1CC1 (stereo not drawn)	128
CCO/N=C1/CN(c2c(F)cc3c(=O)c(C(=O)O)cn4c3c2OC[C@@H]4C)CC1(C)CNC1CC1 (stereo partly drawn)	64
O=C(O)c1cn(C2CC2)c2nc(N3C/C(=N/OCc4ccccc4)C(CNC4CC4)C3)c(F)cc2c1=O (stereo not drawn)	64
O=C(O)c1cn(C2CC2)c2cc(N3CCNCC3)c(F)cc2c1=O [CIPROFLOXACIN]	1
O=C(O)c1cn([C@@H]2C[C@@H]2F)c2nc(N3C/C(=N/OCc4ccccc4)C(CNC4CC4)C3)c(F)cc2c1=O (stereo partly drawn)	64

Incoming: With Pseudomonas aeruginosa as the test system, provide measured MIC for this molecule: CCO/N=C1/CN(c2nc3c(cc2F)c(=O)c(C(=O)O)cn3[C@@H]2C[C@@H]2F)CC1(C)CNC1CC1 (stereo partly drawn)
Outgoing: 64

Incoming: With Pseudomonas aeruginosa as the test system, provide measured MIC for this molecule: CO/N=C1/CN(c2nc3c(cc2F)c(=O)c(C(=O)O)cn3C2CC2)CC1CNC1CC1 (stereo not drawn)
Outgoing: 32

Incoming: With Pseudomonas aeruginosa as the test system, provide measured MIC for this molecule: Nc1nc(-n2cc(C(=O)O)c(=O)c3cc(F)c(N4C/C(=N/OCc5ccccc5)C(CNC5CC5)C4)nc32)c(F)cc1F (stereo not drawn)
Outgoing: 128
